src = patent US20260365682A1

Measured IC50, listed per entry for reference.
Target: TNF-α (Homo sapiens)
Construct: purchased R&D 210-TA-020/CF
Sequence (P01375 77-233 limits assumed): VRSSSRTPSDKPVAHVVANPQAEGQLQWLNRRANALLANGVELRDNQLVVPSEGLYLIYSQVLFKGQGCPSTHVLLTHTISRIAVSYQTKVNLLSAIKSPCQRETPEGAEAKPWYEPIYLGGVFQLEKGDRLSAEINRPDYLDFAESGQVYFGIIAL
Experiment: TNF-α Induced HEK Blue Cellular Assay (secreted alkaline phosphatase expression, QUANTI-Blue)
Assay type: cell-based
Details: HEK Blue TNFα reporter cells; TNF-α 100 μg/ml; 24 hrs at 37° C.; inhibition of secreted alkaline phosphatase; read-out: IC50 value
Experimental: TNF-α Induced HEK Blue Cellular Assay Test articles were diluted in DMSO and serially diluted into 384 well assay plate (Corning 3765), at final concentrations ranging from 30 mM to 0.5 nM. […]

Worked cases, IC50 given:
- molecule: "[2H]C([2H])([2H])N1C(=O)c2cccc(OC(F)F)c2[C@H]2C[C@@H]1c1nc3ccc(C#CC4CCNC4)cc3n12 (stereo partly shown) [Example 71]"
  IC50: "100 to 1000 nM"
- molecule: "[2H]C([2H])([2H])N1C(=O)c2cccc(OC(F)F)c2[C@H]2C[C@@H]1c1nc3ccc(C#CC(O)CC(C)(C)O)cc3n12 (single isomer, unassigned) [Example 221]"
  IC50: "100 to 1000 nM"
- molecule: "[2H]C([2H])([2H])N1C(=O)c2cccc(OC(F)F)c2[C@H]2C[C@@H]1c1nc3ccc(C#CC4(C)CN(C5CC5)C4)cc3n12 [Example 211]"
  IC50: "< 100 nM"
- molecule: "[2H]C([2H])([2H])N1C(=O)c2cccc(OC(F)F)c2[C@H]2C[C@@H]1c1nc3ccc(C#CC4CCCCO4)cc3n12 (stereo partly shown) [Example 49]"
  IC50: "100 to 1000 nM"
- molecule: "[2H]C([2H])([2H])N1C(=O)c2cccc(OC(F)F)c2[C@H]2C[C@@H]1c1nc3ccc(C#CC4CCN(C(=O)C5(O)CC5)CC4)cc3n12 [Example 187]"
  IC50: "< 100 nM"

Problem: Report IC50 for [2H]C([2H])([2H])N1C(=O)c2cccc(OC(F)F)c2[C@H]2C[C@@H]1c1nc3ccc(C#CC4CCCCN4)cc3n12 (stereo partly shown) [Example 47]
Solution: 10000 to 30000 nM

Problem: Recall and state the measured IC50 for [2H]C([2H])([2H])N1C(=O)c2cccc(OC(F)F)c2[C@H]2C[C@@H]1c1nc3ccc(C#CCOC4CCN(C(=O)OC(C)(C)C)CC4)cc3n12 [Example 116] .
Solution: 1000 to 10000 nM
